// provenance: PubChem BioAssay AID1259415

- Test name: qHTS Assay for inhibitors of the human cytomegalovirus (HCMV); also: % is scaled to controls: 0 for no effect and ±100 for the full control effect
- Assay conditions: HFF cells, HCMV-luciferase reporter, 72 h; at 57.5 µM
The whole screen tested about 410,000 compounds, of which about 18,000 (4.4%) were called active. Another 7% or so got no clear call; they are omitted. Rule as the data show it: active = activity change below about -60%; inconclusive = no clear call, values can overlap the other calls; inactive = above about -39%. For the sample, actives were picked, then their nearest neighbours and some compounds at random.
Select the correct class. Options are active, inactive and nothing else.

Sample answers from the record:
INSERT INTO assay_data (compound, label_value) VALUES
  ('COc1ccc(C)cc1S(=O)(=O)N(CC(=O)Nc1cccc([N+](=O)[O-])c1)c1ccc(C)cc1', 'inactive'),
  ('CCCCN(C)c1nnc(NC(=O)Nc2ccc(Br)c(C)c2)s1', 'inactive'),
  ('Cc1ccc(NC(=O)Cn2cnc3nc4c(cc3c2=O)CCCC4)cc1Cl', 'inactive'),
  ('C/C(=N/NC(=O)c1ccc(Br)o1)c1ccc(C)o1', 'inactive'),
  ('Cc1ccc(Nc2nc(Cl)c(C=O)s2)cc1', 'inactive');

I would be grateful if you could indicate the recorded call for CN(Cc1ccccc1)C(=O)c1cn(C)c2ccc(S(=O)(=O)N(C)C3CCCCC3)cc2c1=O .
inactive

// return assay outcome for O=C(NCC(c1ccc2c(c1)OCO2)N1CCN(c2ccccc2)CC1)C(=O)Nc1ccccc1F (stereo not given)
inactive

Outcome logged for Fc1ccccc1Oc1ncnc2c1oc1ccccc12 in this assay:
inactive

Tell me the recorded outcome of this test for CC(C)(C)c1ccc(C(=O)NCC(c2ccc(Cl)cc2)N2CCOCC2)cc1 (stereo not given) .
inactive

Test call, this compound: O=C(COc1ccccc1)NCc1ccc2c(c1)CCN2C(=O)c1ccc(F)cc1
inactive

# lookup: test call for CCC(CC)NC(=O)/C=C/c1cccc([N+](=O)[O-])c1
active

What outcome does the record of this test show for COc1ccccc1-c1cc2nc(C)c(CCC(=O)NC3CCCCC3)c(C)n2n1 ?
inactive

Query: recorded result category for CC(C)C(C)(C#N)NC(=O)CSc1nncn1-c1ccccc1 (stereo not given) in this test
inactive

* * *

- Test name: qHTS Assay for inhibitors of the human cytomegalovirus (HCMV); also: % is scaled to controls: 0 for no effect and ±100 for the full control effect
- Assay conditions: HFF cells, HCMV-luciferase reporter, 72 h; at 57.5 µM
Among all 410,000 compounds or so, about 18,000 (4.4%) were called active. Inconclusive results (about 7%) are left out. Cut-off read from the data, not from the text of the source: active = activity change below about -60%; inconclusive = no clear call, values can overlap the other calls; inactive = above about -39%. This excerpt belongs to a sample that is enriched for actives.
API: response.call in t = active, f = inactive

INSERT INTO assay_data (compound, label_value) VALUES
  ('COc1ccc(OCC(=O)Nc2ccc(NC(=O)c3ccco3)c(C)c2)cc1', 't'),
  ('Cc1ccc(NC(=O)N2c3ccccc3SC2c2ccco2)c(C)c1 (stereo unspecified)', 'f'),
  ('O=C(Nc1nc2c(s1)CCCC2)c1ccccc1F', 't');

Hello, I am checking results. What call was entered for COc1ccc(NC(=O)CSc2nc3ccccc3[nH]2)cc1 ?
f

Give the logged outcome of this assay for the following compound: COc1ccc(NC(=O)c2ccco2)cc1NC(=O)COc1ccc(C)c(C)c1
f

Could you please tell me the result logged for COc1ccc(-c2noc(CSc3nc4ccc(C)cc4[nH]3)n2)cc1 in this assay?
f

* * *

- Test name: qHTS Assay for inhibitors of the human cytomegalovirus (HCMV); also: % is scaled to controls: 0 for no effect and ±100 for the full control effect
- Assay conditions: HFF cells, HCMV-luciferase reporter, 72 h; at 57.5 µM
About 18,000 (4.4%) of roughly 410,000 compounds were called active. Roughly 7% stayed inconclusive and do not appear here. Cut-off read from the data, not from the text of the source: active = activity change below about -60%; inconclusive = no clear call, values can overlap the other calls; inactive = above about -39%. This is one part of a sample in which actives are shown more often than they occur.
I would appreciate it if you answered using one of these outcomes: 1 (yes) (active), 0 (no) (inactive)

Reference set (6 entries):
INSERT INTO assay_data (compound, label_value) VALUES
  ('Cc1cc(Br)ccc1NC(=O)Cn1cnc2sc(C)c(S(=O)(=O)N3CCN(C)CC3)c2c1=O', '0 (no)'),
  ('COc1ccccc1CNC(=O)COC(=O)c1sc(C)nc1C', '0 (no)'),
  ('CCC1Oc2ccc(Cl)cc2N(CC(=O)O)C1=O (stereo not drawn)', '0 (no)'),
  ('O=C(CC1Sc2ccccc2NC1=O)NNc1ccc(Cl)c(Cl)c1 (stereo not drawn)', '0 (no)'),
  ('O=c1c2ccccc2n(Cc2cccc(Cl)c2)c(=O)n1Cc1ccccc1', '0 (no)'),
  ('CC1=NNC(=O)C1CC(=O)N/N=C/c1ccncc1 (stereo not drawn)', '0 (no)');

Lab log entry: CC1CC(C)CN(C(=O)CSc2nnc(CSc3ncccn3)n2C)C1 (stereo not drawn) — outcome as called in the assay?
0 (no)

What did the test return for CCCn1c(NCc2ccc(N(CC)CC)cc2)nc2ccccc21 ?
0 (no)

Which outcome did this test record for the compound COc1cccc(CNC(=O)Cn2ncn3c(cc4ccccc43)c2=O)c1 ?
0 (no)

Tell me the recorded outcome of this test for Cc1c(Cl)cccc1NC(=O)c1noc2c1CCCC2 .
0 (no)

Name the outcome recorded for Cc1ccc(C(=O)NC2CCCC(C)C2C)cc1S(=O)(=O)N1CCCCC1 (stereo not drawn) in the assay.
0 (no)

# lookup: test call for CCOC(=O)N/N=C/c1cccnc1
1 (yes)

Would you mind telling me which call this test gave O=C(O)/C(=C/c1cccnc1)NC(=O)c1ccccc1 ?
0 (no)
